tested on: SF-539 CNS; assay: NCI tumour cell line growth inhibition, 48 h; in the data active = GI50 below about 0.43 µM; inactive = the rest
Give one outcome, nothing more. List: yes (active), no (inactive)

Please review the following examples before continuing.
- compound: "CCN(CC)CCCC(C)Nc1ccnc2cc(Cl)c(SCc3ccccc3)cc12 (stereo not given)"
  assigned_category: "no"
- compound: "CCCNNC(=O)c1ccc(CNC(=O)/C=C/c2ccccc2)cc1"
  assigned_category: "yes"
- compound: "CCOCC[P+](c1ccccc1)(c1ccccc1)c1ccccc1"
  assigned_category: "no"
- compound: "C#Cc1ccc(-n2c(/C=C/c3ccc4ccccc4n3)nc3ncccc3c2=O)cc1"
  assigned_category: "no"
- compound: "COC(=O)C12OCC34C(CC5C(C)=CC(=O)C(O)C5(C)C3C(O)C1O)OC(=O)C(OC(=O)CC(C)C)C24 (stereo not given)"
  assigned_category: "yes"

State the result this test recorded for O=C1[C@H](c2ccccc2)C2c3ccccc3CCN12 (stereo not given in full) .
no

State the result this test recorded for O=C(Nc1cccc2ccccc12)c1cc2ccccc2cc1O .
no

----------
system: U251 CNS; test: NCI tumour cell line growth inhibition, 48 h
property: TGI (µM)
Give the number; µM is assumed, so skip it.

- molecule: "CC[C@]12C=CCN3CCC4(c5cc(N=Nc6ccc([N+](=O)[O-])cc6)c(OC)cc5N(C)[C@H]4[C@@](O)(C(=O)OC)[C@@H]1OC(C)=O)[C@@H]32 (some centres undefined)"
  measured_on: "U251 CNS"
  quantitative_result: 27.4

Given the entry O=C1C=Cc2c(I)sc(I)c21 , report its measured TGI.
33.3

----------
# reported TGI; entries follow
tested on: ACHN renal; assay: NCI tumour cell line growth inhibition, 48 h

- molecule: "Cn1cc(C2=C(c3cccc(NCC(O)CO)c3)C(=O)NC2=O)c2cc(Cl)ccc21 (centres undefined)"
  measured_on: "ACHN renal"
  result: "> 19.6 µM"

Given the entry COc1cc(CNC(=O)CCCCCCCCCCSSCCCCCCCCCCC(=O)NCc2ccc(O)c(OC)c2)ccc1O , report its measured TGI.
> 10 µM

Given the entry C[C@]12CCC(=O)C=C1CC[C@@H]1[C@@H]2CC[C@]2(C)C(=O)/C(=C\c3ccccc3)C[C@@H]12 , report its measured TGI.
> 100 µM

Given the entry CCOC(=O)c1cc(C2(OC)CCN(Cc3ccccc3)C2=O)c(-c2cc(C)no2)[nH]1 (centres undefined) , report its measured TGI.
> 100 µM

Given the entry N.N.N.N.O=S(=O)([O-])[O-].[Co+3].[OH3+].[OH3+] , report its measured TGI.
> 100 µM

Given the entry COc1ccc(C2Oc3c(cccc3OC)C=C2[N+](=O)[O-])cc1 (centres undefined) , report its measured TGI.
3.38 µM

Given the entry CC1=NN(c2ccccc2)C(=O)C1C(=O)C(=O)Nc1ccc(C)cc1C (centres undefined) , report its measured TGI.
> 100 µM

Given the entry Cc1cc(Cl)ccc1Nc1nc(C(F)(F)F)ccc1C(=O)N/N=C/c1c(Cl)cccc1Cl , report its measured TGI.
2.03 µM

Given the entry Cc1ccc(S(=O)(=O)N/N=C2/CC[C@H](C(C)(C)C)C[C@@H]2C)cc1 , report its measured TGI.
30.3 µM

Given the entry C=C1C(=O)O[C@H]2[C@H]3O[C@@H](C[C@@H]12)[C@](C)(O)CCCC(C)=CCC[C@H]3C , report its measured TGI.
21.7 µM

Given the entry O=C(CN1CCCC1)Nc1ccc2sc3ccccc3c(=O)c2n1 , report its measured TGI.
31.7 µM

Given the entry O=C(Nc1cccc(-n2cc(-c3ccncc3)c(-c3ccc(O)c(Cl)c3)n2)c1)Nc1ccc(Cl)c(C(F)(F)F)c1 , report its measured TGI.
10.9 µM

The reported numbers originate from PubChem BioAssay (NCI).
